molecular target: plasma purified human complement protein C3 (human) (UniProt P01024); test: cell-based or functional assay
Sequence (P01024 23-667, chain 1 of 2): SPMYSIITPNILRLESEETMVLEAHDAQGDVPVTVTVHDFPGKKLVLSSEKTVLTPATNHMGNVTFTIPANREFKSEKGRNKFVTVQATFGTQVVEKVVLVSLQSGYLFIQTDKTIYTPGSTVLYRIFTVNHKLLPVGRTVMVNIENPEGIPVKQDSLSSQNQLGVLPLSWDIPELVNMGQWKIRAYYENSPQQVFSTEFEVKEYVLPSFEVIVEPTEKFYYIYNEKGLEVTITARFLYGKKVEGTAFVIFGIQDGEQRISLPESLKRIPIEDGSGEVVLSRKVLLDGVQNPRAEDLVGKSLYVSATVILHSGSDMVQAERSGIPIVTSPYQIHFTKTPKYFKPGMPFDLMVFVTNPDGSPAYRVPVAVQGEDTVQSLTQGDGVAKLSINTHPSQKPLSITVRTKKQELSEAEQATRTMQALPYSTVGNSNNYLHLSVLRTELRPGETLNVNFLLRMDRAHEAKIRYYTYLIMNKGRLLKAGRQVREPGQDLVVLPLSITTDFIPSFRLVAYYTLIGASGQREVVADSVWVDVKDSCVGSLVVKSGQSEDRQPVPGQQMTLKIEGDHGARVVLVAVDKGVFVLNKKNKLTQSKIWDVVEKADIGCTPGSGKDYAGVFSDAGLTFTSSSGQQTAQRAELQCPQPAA
Sequence (P01024 672-1663, chain 2 of 2): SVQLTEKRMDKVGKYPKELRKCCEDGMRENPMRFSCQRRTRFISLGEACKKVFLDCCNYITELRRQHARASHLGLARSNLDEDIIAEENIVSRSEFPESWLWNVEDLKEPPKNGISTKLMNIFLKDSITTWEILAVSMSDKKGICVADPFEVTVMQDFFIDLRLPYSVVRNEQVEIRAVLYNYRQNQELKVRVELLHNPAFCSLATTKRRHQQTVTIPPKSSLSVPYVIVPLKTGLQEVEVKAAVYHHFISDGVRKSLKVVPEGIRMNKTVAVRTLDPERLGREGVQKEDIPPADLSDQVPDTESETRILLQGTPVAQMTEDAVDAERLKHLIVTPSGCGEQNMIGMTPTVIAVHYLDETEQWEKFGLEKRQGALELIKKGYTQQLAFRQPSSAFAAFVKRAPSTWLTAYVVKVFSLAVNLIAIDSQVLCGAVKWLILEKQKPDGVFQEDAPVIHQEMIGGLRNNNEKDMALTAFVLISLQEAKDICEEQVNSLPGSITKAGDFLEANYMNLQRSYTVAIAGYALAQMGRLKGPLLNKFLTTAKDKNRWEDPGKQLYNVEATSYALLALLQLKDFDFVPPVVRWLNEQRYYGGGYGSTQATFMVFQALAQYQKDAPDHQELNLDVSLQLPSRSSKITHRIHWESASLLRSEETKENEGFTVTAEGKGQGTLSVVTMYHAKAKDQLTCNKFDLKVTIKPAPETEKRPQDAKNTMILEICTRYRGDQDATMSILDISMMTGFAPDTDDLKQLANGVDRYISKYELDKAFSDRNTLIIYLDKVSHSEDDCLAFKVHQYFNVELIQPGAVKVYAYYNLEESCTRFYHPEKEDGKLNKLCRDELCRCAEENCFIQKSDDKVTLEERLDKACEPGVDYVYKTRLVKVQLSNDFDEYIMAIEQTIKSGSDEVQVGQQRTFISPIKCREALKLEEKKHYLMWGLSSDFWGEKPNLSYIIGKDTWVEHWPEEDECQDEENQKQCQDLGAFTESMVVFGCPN
# EC50 hC3 cleavage values compiled below
reported.property: EC50 hC3 cleavage (nM)

{"binder": "MTSP-1 protease domain I41A/Y60gW/F99L/C122S/Q175T/Q192A (enzyme) VVGGTDADEGEWPWQVSLHALGQGHACGASLISPNWLVSAAHCYIDDRGFRWSDPTQWTAFLGLHDQSQRSAPGVQERRLKRIISHPFFNDFTLDYDIALLELEKPAEYSSMVRPISLPDASHVFPAGKAIWVTGWGHTQYGGTGALILQKGEIRVINQTTCENLLPQTITPRMMCVGFLSGGVDSCAGDSGGPLSSVEADGRIFQAGVVSWGDGCAQRNKPGVYTRLPLFRDWIKENTGV", "quantitative.result": 17.6}
{"binder": "MTSP-1 protease domain Q38H/I41A/D60bT/F60eK/Y60gF/F97T/ins97aE/T98G/F99L/C122S/H143R/G151N/Q175L/Q192V (enzyme) VVGGTDADEGEWPWQVSLHALGHGHACGASLISPNWLVSAAHCYIDTRGKRFSDPTQWTAFLGLHDQSQRSAPGVQERRLKRIISHPFFNDTEGLDYDIALLELEKPAEYSSMVRPISLPDASHVFPAGKAIWVTGWGRTQYGGTNALILQKGEIRVINQTTCENLLPQLITPRMMCVGFLSGGVDSCVGDSGGPLSSVEADGRIFQAGVVSWGDGCAQRNKPGVYTRLPLFRDWIKENTGV", "quantitative.result": 24.5}
{"binder": "MTSP-1 protease domain Q38Y/I41A/D96I/ins97aQ/C122S (enzyme) VVGGTDADEGEWPWQVSLHALGYGHACGASLISPNWLVSAAHCYIDDRGFRYSDPTQWTAFLGLHDQSQRSAPGVQERRLKRIISHPFFNIFQTFDYDIALLELEKPAEYSSMVRPISLPDASHVFPAGKAIWVTGWGHTQYGGTGALILQKGEIRVINQTTCENLLPQQITPRMMCVGFLSGGVDSCQGDSGGPLSSVEADGRIFQAGVVSWGDGCAQRNKPGVYTRLPLFRDWIKENTGV", "quantitative.result": 4.26}
{"binder": "MTSP-1 protease domain I41S/F99L/C122S/G151N/Q175P/Q192V (enzyme) VVGGTDADEGEWPWQVSLHALGQGHSCGASLISPNWLVSAAHCYIDDRGFRYSDPTQWTAFLGLHDQSQRSAPGVQERRLKRIISHPFFNDFTLDYDIALLELEKPAEYSSMVRPISLPDASHVFPAGKAIWVTGWGHTQYGGTNALILQKGEIRVINQTTCENLLPQPITPRMMCVGFLSGGVDSCVGDSGGPLSSVEADGRIFQAGVVSWGDGCAQRNKPGVYTRLPLFRDWIKENTGV", "quantitative.result": 35.8}
{"binder": "MTSP-1 protease domain Q38H/I41S/D60bT/F60eG/D96Y/F97N/T98G/F99L/C122S/G151N/Q175L/Q192D (enzyme) VVGGTDADEGEWPWQVSLHALGHGHSCGASLISPNWLVSAAHCYIDTRGGRYSDPTQWTAFLGLHDQSQRSAPGVQERRLKRIISHPFFNYNGLDYDIALLELEKPAEYSSMVRPISLPDASHVFPAGKAIWVTGWGHTQYGGTNALILQKGEIRVINQTTCENLLPQLITPRMMCVGFLSGGVDSCDGDSGGPLSSVEADGRIFQAGVVSWGDGCAQRNKPGVYTRLPLFRDWIKENTGV", "quantitative.result": 9.56}
